# testDetails: High-temperature test (60° C.), stability study;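 further: samples kept uncovered in dishes at 60 °C for up to 10 days and examined on Day 5 and Day 10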
# Format: physicochemical
# conditions: open-stored, Day 10, cell wraps, first line given
measurementName: Appearance Day 10

Cc1cc(S(=O)(=O)Nc2cccc3ccccc23)c2c(C)ccc(C(C)C)cc1-2 :: purple
Cc1cc(S(=O)(=O)Nc2ccc(Cl)cc2)c2c(C)ccc(C(C)C)cc1-2 :: purple
Cc1cc(S(=O)(=O)NCC(C)C)c2c(C)ccc(C(C)C)cc1-2 :: purple
CCCNS(=O)(=O)c1cc(C)c2cc(C(C)C)ccc(C)c1-2 :: purple
Cc1cc(S(=O)(=O)Nc2ccc(N)cc2)c2c(C)ccc(C(C)C)cc1-2 :: purple
Cc1cc(S(=O)(=O)NC(C)C)c2c(C)ccc(C(C)C)cc1-2 :: purple
Cc1cc(S(=O)(=O)NCc2ccccc2)c2c(C)ccc(C(C)C)cc1-2 :: blue
COc1ccc(NS(=O)(=O)c2cc(C)c3cc(C(C)C)ccc(C)c2-3)c(OC)c1 :: purple
Cc1cc(S(=O)(=O)NC2CCCCC2)c2c(C)ccc(C(C)C)cc1-2 :: purple

With those in mind, consider the next molecule.
Request: Reported Appearance Day 10 for `CCNS(=O)(=O)c1cc(C)c2cc(C(C)C)ccc(C)c1-2` : what is it?
Result: blue
